Origin of measurements: paper PMC3102704

Tested on: M. tuberculosis H37Rv
Experiment: Antimicrobial susceptibility in BACTEC MGIT 960 system
Assay type: cell-based, Mycobacterium tuberculosis
Conditions: M. tuberculosis H37Rv, BACTEC, 50 and 100 µg/ml
READOUT LABEL: Mtb: antimicrobial activity against M. tuberculosis

Previously resolved entries follow.
>>> reported("COc1ccc(CC(=S)N2CCOCC2)cc1 [L2-09]")
"−"
>>> reported("CS(=O)(=O)c1ncc(Cl)c(C(=O)NCc2ccccc2)n1 [L2-05]")
"+"
>>> reported("CCOC(=O)CCSc1ccccn1 [L2-04, ethyl 3-(pyridin-2-ylthio)propanoate]")
"+"
>>> reported("COC(=O)c1cccc(C(=O)Oc2ccc(OC(=O)c3cccc(C(=O)OC)n3)c(Cl)c2)n1 [L2-10]")
"+"
>>> reported("CNC(=O)COc1ccccc1O [L2-15, 2-(2-hydroxyphenoxy)-N-methylacetamide]")
"−"

Which value of Mtb: antimicrobial activity against M. tuberculosis has been reported for O=C(COc1ccccc1O)NO [L2-03, N-hydroxy-2-(2-hydroxyphenoxy)acetamide] in the records?
−

What about this compound? CCOc1ccc(CCNC(=O)Cn2sc3nc(C)cc(C)c3c2=O)cc1 [L2-13]
+

What about this compound? CN(C)NS(=O)(=O)c1ccc2c(c1)Cc1cc(S(=O)(=O)NN(C)C)ccc1-2 [L2-02]
−

What about this compound? Cc1ccc(S(=O)(=O)NN(C)C)cc1 [L2-01, N′,N′,4-trimethylbenzenesulfonohydrazide]
−

----------
System: M. tuberculosis H37Rv
Experiment: Antimicrobial susceptibility in BACTEC MGIT 960 system
Assay type: cell-based, Mycobacterium tuberculosis
Conditions: M. tuberculosis H37Rv, BACTEC, 50 and 100 µg/ml
READOUT LABEL: Mtb: antimicrobial activity against M. tuberculosis

Previously resolved entries follow.
>>> reported("COc1ccc(NC(=O)c2nc(S(C)(=O)=O)ncc2Cl)cc1Cl [L2-06]")
"+"
>>> reported("N[C@@H]1CONC1=O [CS, (4R)-4-amino-3-isoxazolidinone, reference compound]")
"+"
>>> reported("S=C(Cc1ccccc1)N1CCCCC1 [L2-12, 2-phenyl-1-piperidin-1-ylethanethione]")
"+"
>>> reported("Cc1ccc(CC(=S)N2CCOCC2)cc1 [L2-07]")
"−"

Which value of Mtb: antimicrobial activity against M. tuberculosis has been reported for O=C(O)CSC(=S)Nc1cccnc1 [L2-11] in the records?
−

What about this compound? O=C(c1cccs1)c1no[n+]([O-])c1C(=O)c1cccs1 [L2-18]
−

What about this compound? O=C1Nc2ccccc2C(=O)C1(O)O [L2-16, 3,3-dihydroxy-1H-quinoline-2,4-dione]
+

----------
Test system: M. tuberculosis H37Rv
Assay: Antimicrobial susceptibility in BACTEC MGIT 960 system
Format: cell-based, Mycobacterium tuberculosis
Conditions: M. tuberculosis H37Rv, BACTEC, 50 and 100 µg/ml
READOUT LABEL: Mtb: antimicrobial activity against M. tuberculosis (supplement table)

>>> reported("CCOc1ccc(CCNC(=O)Cn2sc3nc(C)cc(C)c3c2=O)cc1")
"+"
>>> reported("CN(C)NS(=O)(=O)c1ccc2c(c1)Cc1cc(S(=O)(=O)NN(C)C)ccc1-2")
"-"
>>> reported("O=C1Nc2ccccc2C(=O)C1(O)O [L2-16, 3,3-dihydroxy-1H-quinoline-2,4-dione]")
"+"
>>> reported("COC(=O)c1cccc(C(=O)Oc2ccc(OC(=O)c3cccc(C(=O)OC)n3)c(Cl)c2)n1")
"+"
>>> reported("O=C(COc1ccccc1O)NO [L2-03, N-hydroxy-2-(2-hydroxyphenoxy)acetamide]")
"-"

Which value of Mtb: antimicrobial activity against M. tuberculosis (supplement table) has been reported for O=C(c1cccs1)c1no[n+]([O-])c1C(=O)c1cccs1 in the records?
-

What about this molecule? Cc1ccc(CC(=S)N2CCOCC2)cc1
-

What about this molecule? COc1ccc(NC(=O)c2nc(S(C)(=O)=O)ncc2Cl)cc1Cl
+

What about this molecule? CCOC(=O)CCSc1ccccn1 [L2-04, ethyl 3-(pyridin-2-ylthio)propanoate]
+

What about this molecule? CS(=O)(=O)c1ncc(Cl)c(C(=O)NCc2ccccc2)n1
+

What about this molecule? COc1ccc(CC(=S)N2CCOCC2)cc1
-

What about this molecule? N[C@@H]1CONC1=O [CS, (4R)-4-amino-3-isoxazolidinone, reference compound]
+

What about this molecule? O=C(O)CSC(=S)Nc1cccnc1
-
